Experimental system: UniProt:Q07817
Sequence (Q07817 1-211 limits assumed, stated change not applied): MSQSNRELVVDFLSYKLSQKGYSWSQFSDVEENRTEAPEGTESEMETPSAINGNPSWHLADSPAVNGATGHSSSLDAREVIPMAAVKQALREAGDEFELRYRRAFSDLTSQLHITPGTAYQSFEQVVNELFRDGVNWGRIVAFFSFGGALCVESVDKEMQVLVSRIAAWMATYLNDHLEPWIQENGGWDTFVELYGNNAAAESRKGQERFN
Readout: IC50

## Input # query: IC50 of entry CCCCCC[C@H]1C(=O)O[C@H](C)[C@H](NC(=O)c2cccc(NC=O)c2O)C(=O)O[C@@H](C)[C@@H]1OC(=O)CC(C)C [antimycin A1]
## Output 2030 nM

----------
Protocol description: S9 metabolism
Format: in vitro ADME
Run parameters: male, CD2F1, mouse, hepatic S9 fraction; 500 ng/ml, 37° C., pH 7.4
Readout: half-life at 500 ng/ml

## Input # query: half-life at 500 ng/ml of entry CCCC[C@H]1C(=O)OC(C)[C@H](NC(=O)c2cccc(NC=O)c2OC)C(=O)O[C@@H](C)C1OC(=O)CC(C)C (stereo partly shown) [2-OMeA3, Antimycin A3 methyl ether]
## Output > 5 min

----------
Protocol description: Stability in plasma
Assay type: in vitro ADME, human
Run parameters: −80° C., absence of NaF/EDTA
Readout: amounts remaining after 4 weeks

## Input # query: amounts remaining after 4 weeks of entry CCCC[C@H]1C(=O)OC(C)[C@H](NC(=O)c2cccc(NC=O)c2OC)C(=O)O[C@@H](C)C1OC(=O)CC(C)C (stereo partly shown) [2-OMeA3, Antimycin A3 methyl ether]
## Output 73%

## Input Please do the same for CCCCCC[C@H]1C(=O)O[C@H](C)[C@H](NC(=O)c2cccc(NC=O)c2OC)C(=O)O[C@@H](C)[C@@H]1OC(=O)CC(C)C [2-OMeA1, 2-methoxy antimycin A1] as well.
## Output 86%

## Input Please do the same for CCCCCC[C@H]1C(=O)O[C@H](C)[C@H](NC(=O)c2cccc(NC=O)c2OC)C(=O)O[C@@H](C)[C@@H]1OC(=O)CCC [2-OMeA2, 2-methoxy antimycin A2] as well.
## Output 70%

## Input Please do the same for CC[C@H]1C(=O)O[C@H](C)[C@H](NC(=O)c2cccc(NC=O)c2OC)C(=O)O[C@@H](C)[C@@H]1OC(=O)CC(C)C [2-OMeA5, 2-OMe antimycin A5] as well.
## Output 79%
